These entries and their values trace back to PubChem BioAssay (NCATS).

- target_of_assay: Cytochrome P450 3A4 (Homo sapiens) (UniProt P08684)
- Sequence (P08684 whole entry, looked up): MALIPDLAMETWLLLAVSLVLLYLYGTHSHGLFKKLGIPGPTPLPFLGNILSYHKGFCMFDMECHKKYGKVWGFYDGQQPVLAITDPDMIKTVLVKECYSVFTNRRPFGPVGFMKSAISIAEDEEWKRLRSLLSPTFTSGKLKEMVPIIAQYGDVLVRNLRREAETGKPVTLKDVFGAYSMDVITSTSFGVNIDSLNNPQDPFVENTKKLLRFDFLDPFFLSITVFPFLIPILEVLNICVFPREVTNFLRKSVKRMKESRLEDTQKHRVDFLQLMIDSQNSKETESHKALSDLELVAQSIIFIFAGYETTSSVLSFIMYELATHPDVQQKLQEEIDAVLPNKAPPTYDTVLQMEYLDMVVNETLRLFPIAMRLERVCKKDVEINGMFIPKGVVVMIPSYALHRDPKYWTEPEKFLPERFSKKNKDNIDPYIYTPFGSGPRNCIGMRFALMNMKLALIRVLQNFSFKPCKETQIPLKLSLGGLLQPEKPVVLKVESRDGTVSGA
- method_notes: qHTS Assay for Activators of Cytochrome P450 3A4 (AID 885); note: nearly all actives have a fitted effect of over 65% in size
- experimental_parameters: recombinant CYP3A4, Luciferin-PPXE luminescence, 60 min; series mostly up to 57.1 µM
Activity calls are given as the source filed them. Calls come from the whole dose curve; as a rule, active = well fitted activation curve with a large enough effect; inconclusive = small, poorly fitted or top-dose-only effect; inactive = no such curve, though single readings can be large or run the other way.
Lab note: assign the record to one of 1 for active, 0 for inactive

Example entries begin here.
COc1ncc2nc(-c3cn(C)c4ccccc34)c(=O)n(CCC#N)c2n1 0
CN1CCN(c2ccnc(-c3cccc(NS(C)(=O)=O)c3)n2)CC1 0
COCCn1c(=O)cnc2cnc(OCc3ccccc3)nc21 0

// query What classification did c1ccc2c(NC3CC3)nc(-c3ccoc3)nc2c1 end up with in this test?
// result 0

// query // next record COc1ccc(-c2nc3cnc(N(C)C)nc3n(C[C@H]3CCCO3)c2=O)cc1
// result 0

// query // next record N#Cc1cccc(-c2cc(NCc3cccnc3)ncn2)c1
// result 0

// query // next record CC[C@@]12CCCN3CCc4c(n(c5ccccc45)C(=O)C1)[C@H]32
// result 0

// query // next record COc1ccc2[nH]cc(CCNc3ncncc3-c3cccc(NS(C)(=O)=O)c3)c2c1
// result 0

// query // next record COc1ccccc1CNc1ncncc1-c1ccccc1C
// result 0

// query // next record O=S(=O)(c1ccccc1)N1CCC2(CC1)CN(C(c1ccccc1)c1ccccc1)C2
// result 1

// query // next record N#Cc1ccccc1-c1cncnc1NCc1cccnc1
// result 0

// query // next record Cc1nc2cnc(Nc3ccccc3)nc2n(Cc2cccs2)c1=O
// result 0

// query // next record CN(C)C(=O)c1ccc(-c2nc(NCc3cccs3)c3ccccc3n2)cc1
// result 0

// query // next record O=C(Oc1ccccc1)N1CCC2(CC1)CCN(c1cccc(-c3ccccc3)c1)CC2
// result 1

// query // next record CN(C)c1ccc(-c2nc(NCCc3cnc[nH]3)c3ccccc3n2)cc1
// result 0

// query // next record O=C(Nc1ccccc1)N1CCC2(CC1)CCN(C(=O)c1cccc(F)c1)CC2
// result 1

// query // next record O=C(c1ccco1)N1CCC2(CC1)CCN(C(c1ccccc1)c1ccccc1)CC2
// result 1

// query // next record Cn1cccc1C(=O)N1CCC2(CCCN(Cc3ccccc3)C2)CC1
// result 0

====

Measured Potency, listed per entry for reference.
- target_of_assay: Glucocorticoid receptor (Homo sapiens)
- method_notes: GR-GFP Redistribution (AID 450); note: potency is the fitted concentration of half-maximal effect
- experimental_parameters: U2OS GR-GFP nuclear translocation, laser cytometry, 2 h
- Protocol: NIH Molecular Libraries Screening Centers Network [MLSCN] NIH Chemical Genomics Center [NCGC] […] GR-GFP U2OS cells were maintained in DMEM with Glutamax and high glucose, 1% v/v penicillin-streptomycin, and 0.5 mg/mL Geneticin. […] The plates were read by the Acumen Explorer using a 1 x 8 um scan of the whole well area. PI fluorescence triggered the collection of PI and GFP signals. […]
Activity calls are given as the source filed them.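 Rule for the calls: active = compounds whose dose series gives a full or clear partial fitted curve of increased nuclear translocation; inconclusive = weak partial curve or effect only at the top dose; inactive = no dose-dependent translocation response.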

These recorded examples may help you get a feel for the data.
CN(C)c1ccc(-c2cc(NCc3cccnc3)ncn2)cc1 > 46 µM (inactive)
O=c1c(CCc2ccccc2)nc2cnc(N3CCOCC3)nc2n1Cc1ccc(F)cc1 > 9.22 µM (inactive)
N#Cc1cccc(-c2nccc(NCc3cccs3)n2)c1 > 46 µM (inactive)
COCCNc1nc(-c2c(C)noc2C)nc2ccccc12 > 46 µM (inactive)
CCNc1ncc2nc(-c3cc(F)cc(F)c3)c(=O)n(CCOC)c2n1 > 9.22 µM (inactive)
CS(=O)(=O)Nc1cccc(-c2cc(Nc3ccccc3)ncn2)c1 > 46 µM (inactive)

// query Tell me the measured Potency of Cc1noc(C)c1-c1nc(Nc2ccccc2)c2ccccc2n1 , please.
// result > 46 µM (inactive)

// query // next record COCCn1c(=O)c(-c2cccc(Cl)c2)nc2cncnc21
// result > 9.22 µM (inactive)

// query // next record COc1ccccc1CNc1cc(-c2cccc(C#N)c2)ncn1
// result > 46 µM (inactive)

// query // next record COc1ncc2nc(-c3ccc(F)cc3)c(=O)n(Cc3cccs3)c2n1
// result > 9.22 µM (inactive)

// query // next record COc1cccc(-c2nc(NCc3cnc(C)cn3)c3ccccc3n2)c1
// result > 46 µM (inactive)

====

- method_notes: NFAT Signaling Pathway (AID 444);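 note: carbachol stimulus at about its EC50 of 1 µM final; % is set by controls: 0 for no effect and ±100 for the full control effect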
- experimental_parameters: Jurkat NFAT-bla M1, carbachol, beta-lactamase ratio, 5 h; at 17.2 µM (top of the series)
- Method: NCGC Assay Overview: The nuclear factor of activated T cells (NFAT) family of transcription factors has been found primarily in most immune system cells and some other non-immune cells. NFAT plays the immunomodulatory role, primarily in T-cell activation and differentiation. […] NCGC Assay Protocol Summary: The cells were prepared in RPMI 1640 medium containing 0.1% dialyzed FBS and 25 mM HEPES at 1.6 x 10^6cell/ml. […] The %Activity was determined from the ratio of 460nm/530nm. […]
Inconclusive results are not listed. Calls of active or inactive are those of the source. Calls follow the shape of the dose curve; as a rule, active = well fitted curve in either direction with a large enough effect (not every such curve was filed as active); inconclusive = small, poorly fitted or top-dose-only effect, or another doubt; inactive = flat fitted curve, though single readings scatter.
Lab note: assign the record to one of active, inactive

Example entries begin here.
C[C@@H](CCc1ccccc1)NC[C@H](O)c1ccc(O)c(C(N)=O)c1 inactive
C[C@@H](C[N+](C)(C)C)OC(N)=O inactive
CN(Cc1cnc2nc(N)nc(N)c2n1)c1ccc(C(=O)N[C@H](CCC(=O)O)C(=O)O)cc1 inactive

// query What classification did C[C@@H](C(=O)O)c1cccc(C(=O)c2ccccc2)c1 end up with in this test?
// result inactive

// query // next record O=C(c1ccccc1)c1ccc2n1CC[C@H]2C(=O)O
// result inactive

// query // next record O[C@@](CCN1CCCCC1)(c1ccccc1)C1CCCCC1
// result active

// query // next record CCCN[C@@H](C)C(=O)Nc1ccccc1C
// result inactive

// query // next record NC(=O)c1cc[n+](CC2=C(C(=O)O)N3C(=O)[C@@H](NC(=O)[C@H](c4ccccc4)S(=O)(=O)[O-])[C@@H]3SC2)cc1
// result inactive

// query // next record CCCN(CCC)C(=O)[C@@H](CCC(=O)O)NC(=O)c1ccccc1
// result inactive

====

- method_notes: AP1 Signaling Pathway (AID 357);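 note: ME-180 reporter cells stimulated with EGF at its EC50 level; % is set by controls: 0 for no effect and ±100 for the full control effect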
- experimental_parameters: ME-180 AP-1-bla reporter, EGF-induced, beta-lactamase ratio, 5 h; at 7.69 µM (top of the series) unless noted
Results filed as inconclusive are left out. Active and inactive are the calls of the source. Calls follow the shape of the dose curve; as a rule, active = well fitted curve in either direction with a large enough effect (not every such curve was filed as active); inconclusive = small, poorly fitted or top-dose-only effect, or another doubt; inactive = flat fitted curve, though single readings scatter.
Lab note: assign the record to one of yes = active, no = inactive

Example entries begin here.
c1cn(-c2cc(-c3ccc4c(c3)OCO4)ncn2)cn1 no
CN(C)c1ccc(-c2cc(NCc3cccnc3)ncn2)cc1 no
COc1ccccc1CCn1c(=O)c(-c2cccc(Cl)c2)nc2cncnc21 no
O=c1c(-c2ccc(Cl)cc2)nc2cnc(N3CCOCC3)nc2n1CCc1ccccc1 yes
Cc1noc(C)c1-c1nccc(N2CCN(C)CC2)n1 no
Cc1cnc(CNc2cc(-c3ccc(N(C)C)cc3)ncn2)cn1 no
COC(=O)N1CCC2(CCCN(c3ccccn3)C2)CC1 no
COc1ccccc1CN1CCCC2(CCN(C(=O)c3c(C)noc3C)CC2)C1 no

// query What classification did O=C(Oc1ccccc1)N1CCC2(CC1)CN(c1ccccn1)C2 end up with in this test?
// result no

// query // next record CC(=O)NCCNc1nc(-c2c(C)noc2C)nc2ccccc12
// result no

// query // next record O=C(c1csnn1)N1CCC2(CC1)CCN(c1ccncc1)CC2
// result no

====

- method_notes: AP1 Signaling Pathway (AID 357);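 note: ME-180 reporter cells stimulated with EGF at its EC50 level; % is set by controls: 0 for no effect and ±100 for the full control effect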
- experimental_parameters: ME-180 (cervical carcinoma) AP-1-bla reporter, EGF-induced, beta-lactamase ratio, 5 h; at 7.69 µM (top of the series) unless noted
Records with an inconclusive call do not appear. Activity calls are given as the source filed them. The call rests on the fitted dose curve; in most records, active means well fitted curve in either direction with a large enough effect (not every such curve was filed as active); inconclusive means small, poorly fitted or top-dose-only effect, or another doubt; inactive means flat fitted curve, though single readings scatter.
Measured activity change, negative = inhibition, listed per entry for reference.

These recorded examples may help you get a feel for the data.
COCCn1c(=O)c(-c2cccc(Cl)c2)nc2cncnc21 -9.58% (inactive)
N#Cc1ccc(CN2CCCC3(CCN(S(=O)(=O)c4ccccc4)CC3)C2)cc1 -11.3% (inactive)
COc1ccccc1CNc1cc(-c2ccccc2Cl)ncn1 -13.2% (inactive)
c1ccc(CNc2ncnc3ccc(-c4ccoc4)cc23)cc1 -25% (inactive)
COCCn1c(=O)c(-c2ccc(OC)cc2)nc2cnc(Nc3ccccc3)nc21 6.46% (inactive)

Proceed to the following item.
// query Tell me the measured activity change, negative = inhibition of Cn1cccc1C(=O)N1CCC2(CCCN(c3ccccn3)C2)CC1 , please.
// result -9.86% (inactive)

====

Measured activity change, negative = inhibition, listed per entry for reference.
- method_notes: qHTS Assay for Lipid Storage Modulators (AID 1519); note: % is set by controls: 0 for no effect and ±100 for the full control effect
- experimental_parameters: Drosophila S3 cells, BODIPY lipid droplet/cell ratio, laser cytometry; at 57.5 µM (top of the series); cells loaded with oleic acid
Records with an inconclusive call do not appear.
A number alone suffices; assume %.

compound	readout_unit	activity change, negative = inhibition
Cc1ccccc1-c1nc(-n2ccnc2)c2ccccc2n1	%	5.99
C#C[C@]1(O)CCC2C3CCC4=C(CCC(=O)C4)C3CC[C@@]21C (stereo partly specified)	%	7.93
C=CC(C1=CC(=O)C(OC)=CC1=O)c1ccccc1 (stereo unspecified)	%	-14.6
c1ccc(-c2cccc(N3CCC4(CCNCC4)CC3)c2)cc1	%	2.27

Proceed to the following item.
// query Tell me the measured activity change, negative = inhibition of COc1ccc(C(=O)N2CCC3(CC2)CN(c2ncccn2)C3)cc1 , please.
// result 1.87
